Target: T1, human ferroportin (SLC40A1) fused in frame with GFP, stably expressed in HEK293 cells (human, UniProt Q9NP59 1-571)
T1 sequence (looked up): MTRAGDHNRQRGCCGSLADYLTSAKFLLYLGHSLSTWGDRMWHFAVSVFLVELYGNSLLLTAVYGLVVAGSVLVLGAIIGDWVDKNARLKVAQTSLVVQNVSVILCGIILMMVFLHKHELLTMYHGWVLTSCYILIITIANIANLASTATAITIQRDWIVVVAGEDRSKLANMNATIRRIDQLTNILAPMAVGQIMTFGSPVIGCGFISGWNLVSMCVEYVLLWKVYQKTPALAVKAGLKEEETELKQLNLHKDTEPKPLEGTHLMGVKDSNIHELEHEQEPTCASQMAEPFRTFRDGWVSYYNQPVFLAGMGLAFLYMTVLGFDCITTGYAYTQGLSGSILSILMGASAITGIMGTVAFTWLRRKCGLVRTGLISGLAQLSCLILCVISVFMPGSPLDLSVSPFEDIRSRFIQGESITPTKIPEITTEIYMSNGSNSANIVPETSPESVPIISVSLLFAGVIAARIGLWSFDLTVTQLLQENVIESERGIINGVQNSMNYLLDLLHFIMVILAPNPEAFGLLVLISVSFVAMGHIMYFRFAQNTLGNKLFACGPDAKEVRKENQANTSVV
Assay: cell-based or functional assay
Starred links: 1 amine or outer side, 2 acyl side, 3 side chain; linkers in the order of their positions; H or OH if unused. Non-standard residues stand in square brackets, D forms with d. Groups on a side chain read outwards from the residue. *: point of attachment. Dip = N[C@H](C(=O)O)C(c1ccccc1)c1ccccc1; γGlu = O=C(O)[C@H](CCC(=O)[*:2])N[*:1]; Palmitoyl = CCCCCCCCCCCCCCCC(=O)*; β3hF = N[C@H](CC(=O)O)Cc1ccccc1; Isovaleryl = CC(C)CC(=O)*; Ahx = NCCCCCC(=O)O
property_name: FPN EC50 (nM)
Give just the numeric value; nM need not be written.

FPN EC50 reading for Isovaleryl-ETH[Dip]PVIK([Ahx-Palmitoyl])[β3hF]-NH2 (SMILES CCCCCCCCCCCCCCCC(=O)NCCCCCC(=O)NCCCC[C@H](NC(=O)[C@@H](NC(=O)[C@@H](NC(=O)[C@@H]1CCCN1C(=O)[C@@H](NC(=O)[C@H](Cc1c[nH]cn1)NC(=O)[C@@H](NC(=O)[C@H](CCC(=O)O)NC(=O)CC(C)C)[C@@H](C)O)C(c1ccccc1)c1ccccc1)C(C)C)[C@@H](C)CC)C(=O)N[C@H](CC(N)=O)Cc1ccccc1) [Isovaleric Acid-E-T-H-[Dpa]-P-V-I-[Lys(Ahx_Palm)]-[bhPhe]-NH2] : 199

Next:
FPN EC50 reading for Isovaleryl-ETH[Dip]PAIK([γGlu-Palmitoyl])[β3hF][dK]-NH2 (SMILES CCCCCCCCCCCCCCCC(=O)N[C@@H](CCC(=O)NCCCC[C@H](NC(=O)[C@@H](NC(=O)[C@H](C)NC(=O)[C@@H]1CCCN1C(=O)[C@@H](NC(=O)[C@H](Cc1c[nH]cn1)NC(=O)[C@@H](NC(=O)[C@H](CCC(=O)O)NC(=O)CC(C)C)[C@@H](C)O)C(c1ccccc1)c1ccccc1)[C@@H](C)CC)C(=O)N[C@H](CC(=O)N[C@H](CCCCN)C(N)=O)Cc1ccccc1)C(=O)O) [Isovaleric Acid-E-T-H-[Dpa]-P-A-I-[Lys(IsoGlu_Palm)]-[bhPhe]-[(D)Lys]-NH2] : 314
